- assay system: human RORγ (Homo sapiens, UniProt P51449)
- Construct: human, NM_005060.3 and from Ser253 to Lys518; expressed in transfected cells; host or cells: CHO cells (transient co-transfection with pG5-Luc reporter)
- Sequence (P51449 253-518): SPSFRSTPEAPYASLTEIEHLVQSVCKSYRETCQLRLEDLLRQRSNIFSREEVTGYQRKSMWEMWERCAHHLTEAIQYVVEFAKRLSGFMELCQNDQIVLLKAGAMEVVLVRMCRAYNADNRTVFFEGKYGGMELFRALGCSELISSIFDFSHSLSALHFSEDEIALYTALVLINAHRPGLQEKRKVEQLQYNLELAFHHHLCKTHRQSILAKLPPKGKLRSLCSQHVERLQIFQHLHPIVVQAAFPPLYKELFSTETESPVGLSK
- assay: Luciferase reporter gene assay of inhibitory effect against RORγ transcriptional activity (GAL4-hRORγ plasmid in CHO cells)
- Assay type: cell-based
- study conditions: read-out: LUC EC50 (μM) hRORg
property name: EC50

>>> result_value("Cc1ccncc1NC(=O)CCc1nnc(CCC(C)C)n1C1CC1")
"> 3 µM"
>>> result_value("Cc1ccc(NC(=O)C[C@H](CCO)c2nnc(-c3cc(CC(C)C)on3)n2C2CC2)c(C)c1")
"< 3 µM"
>>> result_value("Cc1cc(F)ccc1NC(=O)CCc1nnc(CCC(C)C)n1C1CC1")
"> 3 µM"
>>> result_value("CC(C)(C)Cc1cc(-c2onc([C@@H](CCC(=O)O)CC(=O)Nc3ccc(Cl)cc3Cl)c2C2CC2)no1")
"< 3 µM"
>>> result_value("C=CCC(CC(=O)Nc1cccc(Cl)c1C)c1nnc(CCCC(C)C)n1C1CC1 (racemic)")
"< 3 µM"
>>> result_value("COc1cc(C)ccc1CNC(=O)CCc1nnc(CC[C@H]2CC[C@H](C(F)(F)F)CC2)n1C1CC1")
"< 3 µM"
>>> result_value("CC(=O)N1C[C@H](C(=O)Nc2ccc(C)cc2C)[C@@H](c2nnc(CCCC(C)(C)C)n2C2CC2)C1 [Example F-338]")
"< 3 µM"
>>> result_value("Cc1cc(O)ccc1CNC(=O)CCc1nnc(CCC(C)C)n1C1CC1")
"> 3 µM"

###

- assay system: human RORγ (Homo sapiens, UniProt P51449)
- Construct: human, NM_005060.3 and from Ser253 to Lys518; expressed in transfected cells; host or cells: CHO cells (transient co-transfection with pG5-Luc reporter)
- assay: Luciferase reporter gene assay of inhibitory effect against RORγ transcriptional activity (GAL4-hRORγ plasmid in CHO cells)
- Type: cell-based
- study conditions: read-out: LUC EC50 hRORg
pEC50: −log10 of the molar value.
property name: pEC50

>>> result_value("Cc1ccc(NC(=O)C[C@H](Cc2nnn[nH]2)c2noc([C@H]3C[C@@H](CC(C)C)C3)c2C2CC2)c(C)c1 [Example F-641]")
"> 5.52"
>>> result_value("CC(=O)N1C[C@H](C(=O)Nc2ccc(C)cc2C)[C@@H](c2nnc(-c3cc(CC(C)(C)C)on3)n2C2CC2)C1 [Example F-631]")
"> 5.52"
>>> result_value("Cc1ccc(NC(=O)CC(CC(=O)N2CC[C@@H](O)C2)c2nnc([C@H]3C[C@@H](CC(C)C)C3)n2C2CC2)c(C)c1 (mixture of isomers) [Example F-502]")
"< 5.52"
>>> result_value("Cc1ccc(NC(=O)[C@H]2CN(CC(F)(F)F)C[C@@H]2c2nnc([C@H]3C[C@@H](CC(C)(C)C)C3)n2C2CC2)c(C)c1 [Example F-541]")
"> 5.52"
>>> result_value("Cc1ccc(NC(=O)C[C@H](CNC(=O)CC#N)c2noc([C@H]3C[C@@H](CC(C)C)C3)c2C2CC2)c(C)c1 [Example F-647]")
"> 5.52"
>>> result_value("Cc1ccc(NC(=O)CCc2noc([C@H]3C[C@@H](CC(C)C)C3)c2C2CC2)c(C)c1 [Example F-665]")
"> 5.52"

###

- assay system: mouse RORγ (Mus musculus, UniProt P51450)
- Construct: mouse, NM_011281.2 and from Ile251 to Lys516; expressed in transfected cells; host or cells: CHO cells (transient co-transfection with pG5-Luc reporter)
- assay: Luciferase reporter gene assay of inhibitory effect against RORγ transcriptional activity (GAL4-mRORγ plasmid in CHO cells)
- Format: cell-based
- study conditions: read-out: LUC EC50 (μM) mRORg
// reported EC50 per item
property name: EC50

>>> result_value("Cc1c(Cl)cccc1NC(=O)CCc1nnc(CCOC(C)(C)C(F)(F)F)n1C1CC1")
"< 3 µM"
>>> result_value("Cc1ccc(NC(=O)[C@H]2CN(c3nc(C)cs3)C[C@@H]2c2nnc(CCCC(C)(C)C)n2C2CC2)c(C)c1 (racemic)")
"< 3 µM"
>>> result_value("CC(=O)N1C[C@H](C(=O)Nc2ccc(C)cc2C)[C@@H](c2nnc(-c3ccc(C(C)C)cc3)n2C2CC2)C1 [Example F-411]")
"< 3 µM"
>>> result_value("Cc1ccc(Cl)cc1NC(=O)CCc1nnc(CCC(C)C)n1C1CC1")
"> 3 µM"
>>> result_value("CC(=O)N1C[C@H](C(=O)Nc2cccc(C)c2C)[C@@H](c2nnc(CCCC(C)(C)C)n2C2CC2)C1 (racemic)")
"< 3 µM"
>>> result_value("Cc1c(Cl)cccc1NC(=O)CCc1nnc(C#CC(C)C)n1C1CC1")
"< 3 µM"
>>> result_value("CCOC(=O)[C@H]1CC[C@H](CCc2nnc(CCC(=O)Nc3cccc(Cl)c3C)n2C2CC2)CC1")
"< 3 µM"

###

// reported pEC50 per item
- assay system: human RORγ (Homo sapiens)
- Construct: human, NM_005060.3 and from Ser253 to Lys518; expressed in transfected cells; host or cells: CHO cells (transient co-transfection with pG5-Luc reporter)
- assay: Luciferase reporter gene assay of inhibitory effect against RORγ transcriptional activity (GAL4-hRORγ plasmid in CHO cells)
- Assay type: cell-based
- study conditions: read-out: LUC EC50 hRORg
pEC50: −log10 of the molar value.
property name: pEC50

>>> result_value("CC(=O)N1C[C@@H](C(=O)Nc2ccc(C)cc2C)[C@H](c2nnc(-c3cc(CC(C)C)no3)n2C2CC2)C1")
"< 5.52"
>>> result_value("Cc1ccc(NC(=O)C[C@H](CCC(=O)O)c2noc3c2C(C)CCC3CCC(C)C)c(Cl)c1 (single isomer, unassigned) [Example F-695]")
"< 5.52"
>>> result_value("CC(=O)N1C[C@H](C(=O)Nc2ccc(Cl)cc2C)[C@@H](c2nnc([C@H]3C[C@@H](CC(C)C)C3)n2C2CC2)C1")
"> 5.52"
>>> result_value("CC(=O)N1CC(c2noc([C@H]3C[C@@H](CC(C)(C)C)C3)c2C2CC2)[C@@H](C(=O)Nc2ccc(C)cc2Cl)C1 (stereo partly drawn)")
"> 5.52"
>>> result_value("Cc1c(NC(=O)C[C@H](OCC(F)(F)F)c2nnc(-c3cc(CC(C)C)on3)n2C2CC2)ccc(F)c1F")
"> 5.52"
>>> result_value("Cc1ccc(NC(=O)C[C@H](CCCO)c2nnn([C@H]3C[C@@H](CC(C)(C)C(C)C)C3)c2C(F)(F)F)c(F)c1")
"> 5.52"

###

// reported EC50 per item
- assay system: mouse RORγ (Mus musculus, UniProt P51450)
- Construct: mouse, NM_011281.2 and from Ile251 to Lys516; expressed in transfected cells; host or cells: CHO cells (transient co-transfection with pG5-Luc reporter)
- assay: Luciferase reporter gene assay of inhibitory effect against RORγ transcriptional activity (GAL4-mRORγ plasmid in CHO cells)
- Type: cell-based
- study conditions: read-out: LUC EC50 (μM) mRORg
property name: EC50

>>> result_value("Cc1c(Cl)cccc1NC(=O)CCc1nnc(C2CCCC(C)C2)n1C1CC1 (stereo not shown) [Example F-135]")
"< 3 µM"
>>> result_value("CCn1c(C(O)CC(=O)Nc2cccc3ccccc23)nnc1C1Cc2ccccc2C1 (racemic) [Example F-34]")
"> 3 µM"
>>> result_value("COC1(CC(C)C)CC(c2nnc([C@H]3CN(C(C)=O)C[C@@H]3C(=O)Nc3ccc(C)cc3C)n2C2CC2)C1 (single isomer, unassigned) [Example F-482]")
"< 3 µM"
>>> result_value("Cc1ccc(NC(=O)CCc2nnc(-c3ccc(OC(C)C)cc3)n2C2CC2)c(C)c1 [Example F-441]")
"< 3 µM"

###

// reported EC50 per item
- assay system: mouse RORγ (Mus musculus)
- Construct: mouse, NM_011281.2 and from Ile251 to Lys516; expressed in transfected cells; host or cells: CHO cells (transient co-transfection with pG5-Luc reporter)
- Sequence (P51450 251-516): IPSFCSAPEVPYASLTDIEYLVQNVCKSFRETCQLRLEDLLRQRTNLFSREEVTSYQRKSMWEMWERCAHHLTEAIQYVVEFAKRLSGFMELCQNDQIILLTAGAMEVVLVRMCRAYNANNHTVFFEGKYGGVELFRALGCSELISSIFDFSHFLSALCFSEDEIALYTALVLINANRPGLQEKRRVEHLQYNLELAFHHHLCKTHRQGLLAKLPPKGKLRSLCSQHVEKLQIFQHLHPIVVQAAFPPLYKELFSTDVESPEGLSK
- assay: Luciferase reporter gene assay of inhibitory effect against RORγ transcriptional activity (GAL4-mRORγ plasmid in CHO cells)
- Type: cell-based
- study conditions: read-out: LUC EC50 (μM) mRORg
property name: EC50

>>> result_value("CC(=O)N1C[C@@H](C(=O)Nc2ccc(C)cc2C)[C@H](c2nnc(C3CC4(CCCCC4)C3)n2C2CC2)C1 [Example F-474]")
"< 3 µM"
>>> result_value("CCn1c(CCC(=O)Nc2cccc3ccccc23)nnc1CC1CCCCC1 [Example F-17]")
"< 3 µM"
>>> result_value("CC(=O)N1C[C@H](C(=O)Nc2ccc(C)cc2C)[C@@H](c2nnc([C@H]3C[C@H](OC(C)C)C3)n2C2CC2)C1 (racemic) [Example F-329]")
"> 3 µM"
>>> result_value("Cc1ccc(NC(=O)C[C@H](CCC(=O)O)c2noc(-c3cc(C(F)(F)C(C)C)on3)c2C2CC2)c(Cl)c1 [Example E-20]")
"< 3 µM"
>>> result_value("CCCC(CC(=O)Nc1cccc(Cl)c1C)c1nnc(CCC(C)C)n1C1CC1 (racemic) [Example F-194]")
"< 3 µM"
>>> result_value("Cc1ccc(NC(=O)C(C)C(CCOCc2ccccc2)c2nnc([C@H]3C[C@@H](CC(C)C)C3)n2C2CC2)c(C)c1 (some centres unmarked) [Example F-489]")
"< 3 µM"
>>> result_value("CC(C)(C)CCc1cc(-c2onc([C@@H](CCC(=O)O)CC(=O)Nc3ccc(F)cc3Cl)c2C2CC2)no1 [Example E-34]")
"< 3 µM"
>>> result_value("Cc1ccc(NC(=O)CCc2nnc(C3CC(COC(C)C)C3)n2C2CC2)c(C)c1 (single isomer, unassigned) [Example F-477]")
"< 3 µM"
>>> result_value("Cc1ccc(NC(=O)CC(CCO)c2nnc(CCCC(C)(C)C)n2C2CC2)c(C)c1 (racemic) [Example F-307]")
"< 3 µM"
>>> result_value("CCc1cccc(NC(=O)CCc2nnc(CCC(C)C)n2C2CC2)c1 [Example F-132]")
"> 3 µM"
>>> result_value("CC(=O)N1C[C@H](C(=O)Nc2ccc(C)cc2C)[C@@H](c2nnc(CCC(C)(C)C(C)C)n2C2CC2)C1 (racemic) [Example F-321]")
"< 3 µM"
>>> result_value("CCn1c(CCC(=O)NC23CC4CC(CC(C4)C2)C3)nnc1C1Cc2ccccc2C1 [Example F-24]")
"> 3 µM"
>>> result_value("COc1cc(C)ccc1CNC(=O)CCc1nnc(CCC(C)C)n1C1CC1 [Example F-148]")
"< 3 µM"
>>> result_value("Cc1c(Cl)cccc1CNC(=O)CCc1nnc(CCC(C)C)n1C1CC1 [Example F-123]")
"> 3 µM"
>>> result_value("Cc1ccc(NC(=O)CC(Cc2nc(=O)o[nH]2)c2nnc([C@H]3C[C@@H](CC(C)C)C3)n2C2CC2)c(C)c1 (mixture of isomers) [Example F-472]")
"< 3 µM"
>>> result_value("Cc1ccc(NC(=O)CC(Cc2nccs2)c2nnc([C@H]3C[C@@H](CC(C)C)C3)n2C2CC2)c(C)c1 (mixture of isomers) [Example F-439]")
"< 3 µM"
>>> result_value("CC(=O)N1C[C@H](C(=O)Nc2ccc(C)cc2C)[C@@H](c2nnc(CCOC(C)(C)C)n2C2CC2)C1 (racemic) [Example F-222]")
"< 3 µM"
>>> result_value("Cc1ccc(NC(=O)CC(CCN)c2nnc(CCCC(C)C)n2C2CC2)c(C)c1 (racemic) [Example F-273]")
"> 3 µM"
>>> result_value("Cc1ccc(NC(=O)CC(CCCO)c2nnc(CCCC(C)(C)C)n2CC(F)(F)F)c(C)c1 (racemic) [Example F-401]")
"< 3 µM"
>>> result_value("Cc1ccc(NC(=O)CCc2nnc([C@H]3C[C@@H](CC(C)C)C3)n2C2CC2)c(C)c1 [Example F-358]")
"< 3 µM"
>>> result_value("Cc1ccc(NC(=O)C[C@@H](CCO)c2nnc(CCCC(C)C)n2C2CC2)c(C)c1 [Example F-313]")
"> 3 µM"
>>> result_value("Cc1ccc(NC(=O)C[C@H](CCC(=O)O)c2noc(-c3cc(C4(C)CCCC4)on3)c2C2CC2)c(Cl)c1 [Example E-42]")
"< 3 µM"
>>> result_value("CC(=O)N1C[C@H](C(=O)Nc2cccc(Cl)c2C)[C@@H](c2nnc(CCC(C)C)n2C2CC2)C1 (racemic) [Example F-145]")
"< 3 µM"
>>> result_value("C=CCC(CC(=O)NCc1ccc(C)cc1OC)c1nnc(CCCC(C)C)n1C1CC1 (racemic) [Example F-200]")
"< 3 µM"
>>> result_value("CCn1c(CCC(=O)Nc2cccc3ccccc23)nnc1CCC(C)(C)C [Example F-25]")
"< 3 µM"
>>> result_value("CC(C)(C)c1cc(-c2onc([C@@H](CCC(=O)O)CC(=O)Nc3ccc(Cl)cc3F)c2C2CC2)no1 [Example E-69]")
"< 3 µM"
>>> result_value("Cc1ccc(NC(=O)CC(CCCN)c2nnc(CCCC(C)C)n2C2CC2)c(C)c1 (racemic) [Example F-282]")
"> 3 µM"
>>> result_value("CC(=O)N1C[C@H](C(=O)Nc2ccc(C)cc2C)[C@@H](c2nnc(C3CN(C(=O)OC(C)(C)C)C3)n2C2CC2)C1 (racemic) [Example F-416]")
"> 3 µM"
>>> result_value("C=CCC(CC(=O)Nc1ccc(C)cc1C)c1nnc(CCCC(C)C)n1C1CC1 (racemic) [Example F-198]")
"< 3 µM"
